Tested on: U937 cells
test_protocol: Anti-proliferative assay (MTT), U937
Type: cell-based
measurement_context: Homo sapiens, U-937, 48 h, triplicate, mean ± SD
readout_label: IC50

CC(C)C[C@H](NC(=O)[C@@H](O)[C@H](N)Cc1ccccc1)C(=O)O [Bestatin, bestatin, reference compound] ... > 500 µM

stdin: Give reported IC50 value for CC(=O)N1N=C(c2c(Cl)cccc2Cl)CC1c1ccccc1OCC(=O)NO (centres unmarked) [Compound 14o]
stdout: 38.3 µM

====

Below, each entry is listed alongside its reported melting point.

Observe how each entry below is paired with its result.
CC(=O)N1N=C(c2ccccc2OCc2ccccc2Br)CC1c1ccccc1OCC(=O)NO (centres unmarked) [Compound 14cc] ... 82 to 84 °C
CC(=O)N1N=C(c2ccccc2I)CC1c1cccc(Br)c1OCC(=O)NO (centres unmarked) [Compound 14q] ... 96 to 98 °C

Let us examine a further case.
stdin: Give reported melting point value for CC(=O)N1N=C(c2ccccc2Cl)CC1c1ccccc1OCC(=O)NO (centres unmarked) [Compound 14h]
stdout: 166 to 168 °C
